This section presents binders with their documented EC50 values.
Target: T1, Recombinant DR3-Fc (R&D Systems, cat. #943-D3) (UniProt Q93038 25-199, limits assumed)
T1 construct: dimeric MW~92 kDa; also called DR3 receptor; Fc-DR3; not shown: Fc part of the bought fusion
T1 sequence (looked up): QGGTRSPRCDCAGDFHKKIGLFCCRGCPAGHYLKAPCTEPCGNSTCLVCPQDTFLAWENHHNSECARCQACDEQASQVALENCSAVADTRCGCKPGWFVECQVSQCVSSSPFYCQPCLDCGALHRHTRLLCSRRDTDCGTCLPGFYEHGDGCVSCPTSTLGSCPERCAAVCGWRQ
Assay: ELISA, DR3-Fc immobilized
Please give a number only; it is taken to be in nM.

Example binders with recorded EC50:
{"binder": "TL1W109 (His-TEV-TL1A S187L) (ligand, also called TL1W109 (S187L)) HHHHHHENLYFQGLKGQEFAPSHQQVYAPLRADGDKPRAHLTVVRQTPTQHFKNQFPALHWEHELGLAFTKNRMNYTNKFLLIPESGDYFIYSQVTFRGMTSECSEIRQAGRPNKPDSITVVITKVTDLYPEPTQLLMGTKSVCEVGSNWFQPIYLGAMFSLQEGDKLMVNVSDISLVDYTKEDKTFFGAFLL", "EC50 / nM": 17.7}
{"binder": "TL1W2 (His-TEV-hTL1A 72-251) (ligand, Non-covalent trimer; entry holds the His-TEV tag; also called His-TL1A; His-TL1A (TL1W2)) HHHHHHENLYFQGLKGQEFAPSHQQVYAPLRADGDKPRAHLTVVRQTPTQHFKNQFPALHWEHELGLAFTKNRMNYTNKFLLIPESGDYFIYSQVTFRGMTSECSEIRQAGRPNKPDSITVVITKVTDSYPEPTQLLMGTKSVCEVGSNWFQPIYLGAMFSLQEGDKLMVNVSDISLVDYTKEDKTFFGAFLL", "EC50 / nM": 26.2}

query: Looking for the measured EC50 of TL1W95 (His-TEV-TL1A Q167A) (ligand, also called TL1W95 (Q167A)) HHHHHHENLYFQGLKGQEFAPSHQQVYAPLRADGDKPRAHLTVVRQTPTQHFKNQFPALHWEHELGLAFTKNRMNYTNKFLLIPESGDYFIYSQVTFRGMTSECSEIRAAGRPNKPDSITVVITKVTDSYPEPTQLLMGTKSVCEVGSNWFQPIYLGAMFSLQEGDKLMVNVSDISLVDYTKEDKTFFGAFLL , can you help?
result: 17.1

query: Cool, now TL1W122 (His-TEV-TL1A N207F) (ligand, also called TL1W122 (N207F)) HHHHHHENLYFQGLKGQEFAPSHQQVYAPLRADGDKPRAHLTVVRQTPTQHFKNQFPALHWEHELGLAFTKNRMNYTNKFLLIPESGDYFIYSQVTFRGMTSECSEIRQAGRPNKPDSITVVITKVTDSYPEPTQLLMGTKSVCEVGSFWFQPIYLGAMFSLQEGDKLMVNVSDISLVDYTKEDKTFFGAFLL
result: 30.2
